Assay: Protein binding, human
Format: in vitro ADME
Recorded Protein Binding (% Free) Human determines the group label, using low-valued: < 1 % Free; mid-valued: ≥ 1 % Free and < 4 % Free; high-valued: ≥ 4 % Free

Sample answers from the record:
>>> assigned_category("Cc1cc(-c2cnc3cc(-c4ccc(C5COCCCN5)cc4)ccn23)c2cc(F)ccc2n1 (centres unmarked)")
"mid-valued"
>>> assigned_category("Cc1cc(-c2cnc3cc(-c4ccc(C5CNCCN5)cc4)ccn23)c2cc(F)ccc2n1 (centres unmarked) [Compound 18]")
"high-valued"
>>> assigned_category("Cc1cc(-c2cnc3cc(-c4ccc(C5COCCN5)cc4)ccn23)c2cc(F)ccc2n1 (centres unmarked)")
"mid-valued"
>>> assigned_category("Cc1cc(-c2cnc3cc(-c4ccc(C5COCC(C)N5)cc4)ccn23)c2cc(F)cc(F)c2n1 (centres unmarked)")
"mid-valued"
>>> assigned_category("NS(=O)(=O)c1ccc(-c2cnc3cc(-c4ccc(C5CNCCN5)cc4)ccn23)c2ccccc12 (centres unmarked)")
"high-valued"
>>> assigned_category("Cc1cc(-c2cnc3cc(-c4ccc(C5COC(C)CN5)cc4)ccn23)c2cc(F)ccc2n1 (centres unmarked)")
"mid-valued"
>>> assigned_category("Cc1cc(-c2cnc3cc(-c4ccc(C5COC(C)CN5)cc4)ccn23)c2ccccc2n1 (centres unmarked)")
"low-valued"
>>> assigned_category("Cc1cc(-c2cnc3cc(-c4ccc(C5COCCN5)cc4)ccn23)c2ccccc2n1 (centres unmarked)")
"mid-valued"
>>> assigned_category("c1cnc2c(-c3cnc4cc(-c5ccc(C6CNCCN6)cc5)ccn34)ccnc2c1 (centres unmarked)")
"high-valued"
>>> assigned_category("Cc1cc(-c2cnc3cc(-c4ccc(C5COCCCN5)cc4)ccn23)c2cc(F)cc(F)c2n1 (centres unmarked)")
"mid-valued"

(Q) Place this compound in its band: c1cc(-c2cnc3cc(-c4ccc(C5CNCCN5)cc4)ccn23)c2cccnc2c1 (centres unmarked)
(A) high-valued

(Q) Place this compound in its band: `Cc1cc(-c2cnc3cc(N4CC5(CCNCC5)C4)ccn23)c2cc(F)cc(F)c2n1`
(A) low-valued

(Q) Place this compound in its band: `Cc1cc(-c2cnc3cc(-c4ccc(N5CCNC(C)(C)C5)cc4)ccn23)c2cc(F)cc(F)c2n1`
(A) low-valued
